Listed below: cytotoxicity at 10 µM values for each entry.
assay: Toxicity liver stage against HepG2, at 10uM; assay type: cell-based; set-up: test concentration 10 uM, cell line HepG2-A16-CD81EGFP; details: human, HepG2-A16-CD81EGFP cells; read-out: INHIBITION
// note: answer is a bare numeric in %

Some solved cases for reference:
{"columns": ["Compound", "cytotoxicity at 10 µM [%]"],
 "data": [
  ["CCC(=O)c1ccc(OCC(=O)N2CCNCC2C(=O)NC2CC2)cc1 (stereo unspecified)", -3.28],
  ["C[C@@H]1CN(C(=O)CCCN2CCCC2)CC[C@@]1(O)C1CCOCC1", -0.422],
  ["COc1cc(F)c(NC(=O)N(C)CCNC(=O)N(C)C)cc1F", 17.6]
]}

Q: # input compound: Cc1ccccc1CNc1nc(O)cc(C2CC(=O)N(C)C2)n1 (stereo unspecified) ; wanted: its cytotoxicity at 10 µM
Result: -0.336

Q: Which cytotoxicity at 10 µM value belongs to O=S(=O)(N1CCOCC1)N1CCC(Oc2cnccn2)CC1 ?
Result: -23.3

Q: Which value of cytotoxicity at 10 µM has been reported for CC(C)c1sc(Br)nc1C(=O)NCc1ccco1 in the records?
Result: -2.89

Q: Given the entry COCCC(Cc1cccc(Br)c1)C(=O)N(C)C (stereo unspecified) , report its measured cytotoxicity at 10 µM.
Result: 13

Q: What measured cytotoxicity at 10 µM goes with O=C(NCCc1nc2ccccc2s1)c1coc(CN2CCOCC2)c1 ?
Result: -5.69

---

experiment: Toxicity liver stage against HepG2, at 10uM; format: cell-based; set-up: test concentration 10 uM, cell line HepG2-A16-CD81EGFP; conditions: human, HepG2-A16-CD81EGFP cells; read-out: INHIBITION
Observation type: cytotoxicity at 10 µM (%)
Dear colleague, please return just the value in %, with no unit written.

{"columns": ["Compound", "cytotoxicity at 10 µM, %"],
 "data": [
  ["Cc1cc(O)c(OCC(=O)/N=c2\\[nH]cc(C)s2)cn1", -12.4],
  ["Cc1ccc(N2C[C@H](C)[C@]3(CCN(c4cccnc4)C3=O)C2)nn1", -1.22],
  ["Cc1nn(C)c(C)c1C1CCCN1Cc1nc(-c2ccco2)oc1C (stereo unspecified)", -4.27],
  ["Cn1c(CS(=O)(=O)c2ccc(Cl)cc2)cc(=O)n(C)c1=O", 7.5],
  ["CNC(=O)c1ccc(C(=O)N2CCCC2c2cnn(C)c2)cn1 (stereo unspecified)", -6.41]
]}

# input for lookup
Q: So what's the measured cytotoxicity at 10 µM for this one? CC(C)c1noc(CCC(=O)N2CCN(Cc3ccncc3)CC2)n1
Result: -9.08

---

assay: Toxicity liver stage against HepG2, at 10uM; format: cell-based; parameters: test concentration 10 uM, cell line HepG2-A16-CD81EGFP; settings: human, HepG2-A16-CD81EGFP cells; read-out: INHIBITION
cytotoxicity at 10 µM reference
The answer is to be given in %; state only the numeric part.

{"columns": ["Compound", "cytotoxicity at 10 µM, %"],
 "data": [
  ["CN(C)C(=O)CN1CCc2ncnc(C3CC3)c2CC1", -94.1],
  ["Cc1n[nH]c(C)c1-c1cc(-c2ccc[nH]2)nc(N)c1C#N", 12.4],
  ["CCOc1ccc(NC2CCN(CC(F)(F)F)C2=O)cc1C (stereo unspecified)", 1.41],
  ["CN1CCOC(CNC(=O)CCCOc2cccc(F)c2)C1 (stereo unspecified)", -5.1],
  ["Cc1nc(N(C)C)nc(-c2cccc(-c3ccn(CCCF)n3)c2)c1C", 3.7]
]}

Q: Quick check: cytotoxicity at 10 µM of CCc1ncc(CN(CCc2ccccc2)Cc2cccs2)cn1 ?
Result: 2.44

Q: // cytotoxicity at 10 µM lookup, key: Cc1ccsc1[C@@H]1CCN(C(=O)c2cc3ccccc3[nH]2)C[C@H]1O
Result: 29

Q: Name the reported cytotoxicity at 10 µM value associated with the compound CNc1nc(C(=O)N2CCCn3nc(C(=O)N4CCCC4)cc3C2)cs1
Result: 4.57

Q: I'd like to know its cytotoxicity at 10 µM. The compound in question is CC(C)c1nc2c(n1C)CCN(Cc1cccc(C(N)=O)c1)C2
Result: -7.39

Q: # lookup: cytotoxicity at 10 µM of COc1cc2c(nn1)CCN(Cc1ncc(C(C)(C)C)o1)C2
Result: -6.44

Q: Return reported cytotoxicity at 10 µM; argument: CN1CCCCC1c1ccc(-n2ccnc2)nc1 (stereo unspecified)
Result: 5.01

Q: Bench note: what cytotoxicity at 10 µM did CCc1cnc(CN(C)C2CCN(CCn3cc(C#N)cn3)C2)o1 (stereo unspecified) show?
Result: -8.99

Q: Give the measured cytotoxicity at 10 µM of CCN1CC[C@@]2(C(=O)N3CCCC3)CCN(S(C)(=O)=O)CC[C@@H]12 .
Result: -0.537

Q: Look up cytotoxicity at 10 µM for this compound: CCC(=O)Nc1cc(Cl)ccc1C(=O)N(C)Cc1noc(CC)n1
Result: 7.1

Q: So what's the measured cytotoxicity at 10 µM for this one? O=C(NC1CCC1)[C@H]1C[C@H]2CN(C(=O)Nc3ccc(F)cc3)C[C@@H]1O2
Result: 7.2

Q: What value of cytotoxicity at 10 µM has been reported for the following compound? N#Cc1ccc(NCc2cccc(OCC3CCCO3)c2)nc1 (stereo unspecified)
Result: 1.25

Q: # lookup: cytotoxicity at 10 µM of CN(C)c1nc2c(c(N3CCCC4(CC3)CNC(=O)O4)n1)CCCC2 (stereo unspecified)
Result: -1.07

Q: Endpoint output: cytotoxicity at 10 µM of N#Cc1ccccc1N1CCN(CCC(=O)N2CCOCC2)CC1 . Value?
Result: 10

Q: Suppose we examine the compound CCCn1nc2c(cc1=O)CN(Cc1ncc(C(C)(C)C)o1)CC2 ; what cytotoxicity at 10 µM value has been reported?
Result: -7.17

Q: So what does the record say about cytotoxicity at 10 µM for CC(C)Cn1ncc(C(=O)NS(=O)(=O)C2CCCC2)c1C1CC1 ?
Result: -9.97

Q: Reported cytotoxicity at 10 µM, compound COC(=O)CC(NC(=O)c1ccccc1OC)c1cccs1 (stereo unspecified) : ____
Result: 0.35

Q: Given the compound COc1ccc(C(=O)N2C[C@@H](c3ccccc3)[C@@H]3NCCCC[C@@H]32)cc1 , what is its reported cytotoxicity at 10 µM?
Result: -23.3

Q: Recorded cytotoxicity at 10 µM for O=C(c1c(F)cccc1F)N1CCOCC1 , please?
Result: 5.33

Q: Look up cytotoxicity at 10 µM for this compound: CCOC(=O)CC(C)NC(=O)c1cn(Cc2ccccc2F)nn1 (stereo unspecified)
Result: -4.75
